- System: BLA (Lactobacillus acidophilus)
- PROCEDURE DETAILS: Antibiotic susceptibility of lactic acid bacteria strains; also: key: +++: being normally grown without the effect of antibiotic; −: being not grown caused by the effect of antibiotic
- Type: cell-based
- TEST PARAMETERS: MRS medium, 37° C.; A50, K50, S50 50, C34 34, T15 15, G20 20, R25 25 microgram/ml
TEST READOUT: Antibiotic susceptibility (growth of BLA with antibiotic)

NC[C@H]1O[C@H](O[C@H]2[C@H](O)[C@@H](O[C@H]3O[C@H](CO)[C@@H](O)[C@H](N)[C@H]3O)[C@H](N)C[C@@H]2N)[C@H](O)[C@@H](O)[C@@H]1O
+++
O=C(N[C@H](CO)[C@H](O)c1ccc([N+](=O)[O-])cc1)C(Cl)Cl
−
CN(C)[C@@H]1C(=O)C(C(N)=O)=C(O)[C@@]2(O)C(=O)C3=C(O)c4c(O)cccc4[C@@](C)(O)[C@H]3C[C@@H]12
−
CO[C@H]1/C=C/O[C@@]2(C)Oc3c(C)c(O)c4c(O)c(c(/C=N/N5CCN(C)CC5)c(O)c4c3C2=O)NC(=O)/C(C)=C\C=C\[C@H](C)[C@H](O)[C@@H](C)[C@@H](O)[C@@H](C)[C@H](OC(C)=O)[C@@H]1C
−

Here is another compound to look at.
Request the reported Antibiotic susceptibility (growth of BLA with antibiotic) associated with [H]/N=C(/N)N[C@H]1[C@H](O)[C@@H](O)[C@H](O[C@@H]2O[C@@H](C)[C@](O)(C=O)[C@H]2O[C@@H]2O[C@@H](CO)[C@H](O)[C@@H](O)[C@@H]2NC)[C@@H](N/C(N)=N\[H])[C@@H]1O
−
